// data source = paper PMC9377253

- System: doxorubicin-sensitive Colo 205 colonic adenocarcinoma cells
- test-name: MTT antiproliferative assay (72 h), Colo 205
- Assay type: cell-based, human
- test-conditions: Homo sapiens, COLO 205, 72 h incubation, read-out: Antiproliferative IC50, Colo205
readout-label: IC50 (µM)

Consider the reported IC50 for these compounds:
compound: C=C1C(=O)O[C@@H]2C[C@H](C)[C@]3(O)CCC(=O)[C@@]3(C)C[C@H]12
unit-abbrev: µM
IC50: 26.4

compound: C=C1C(=O)O[C@@H]2[C@H]1CC[C@H](C)[C@@H]1CCC(=O)O[C@@]21C
unit-abbrev: µM
IC50: 15.6

compound: C=C1C(=O)O[C@@H]2[C@H]1CC[C@H](C)[C@H](CCC(=O)OC)[C@@]2(C)O [Compound 7, 1,10-dihydro-1′-noraltamisin]
unit-abbrev: µM
IC50: 17

compound: COc1cccc2c1C(=O)c1c(O)c3c(c(O)c1C2=O)C[C@@](O)(C(=O)CO)C[C@@H]3O[C@H]1C[C@H](N)[C@H](O)[C@H](C)O1 [Doxorubicin, doxorubicin, reference compound]
unit-abbrev: µM
IC50: 0.24

A. COc1c(O)cc2oc(-c3ccc(O)c(O)c3)c(OC)c(=O)c2c1O
B. C=C1C(=O)O[C@@H]2[C@H]1CC[C@H](C)[C@]1(CCC(=O)O1)[C@@]2(C)O
Of A and B , which carries the smaller reported IC50 figure? Let me know the label of the one you choose. B
(B: 14.4 µM, A: 66.8 µM)
